All values here come from ChEMBL document CHEMBL6134930.

Field: inhibition at 0.5 h, 30 µM. Provide a value for each of the compounds that follow.
# System under test: UniProtKB P08684
# Sequence (P08684 whole entry): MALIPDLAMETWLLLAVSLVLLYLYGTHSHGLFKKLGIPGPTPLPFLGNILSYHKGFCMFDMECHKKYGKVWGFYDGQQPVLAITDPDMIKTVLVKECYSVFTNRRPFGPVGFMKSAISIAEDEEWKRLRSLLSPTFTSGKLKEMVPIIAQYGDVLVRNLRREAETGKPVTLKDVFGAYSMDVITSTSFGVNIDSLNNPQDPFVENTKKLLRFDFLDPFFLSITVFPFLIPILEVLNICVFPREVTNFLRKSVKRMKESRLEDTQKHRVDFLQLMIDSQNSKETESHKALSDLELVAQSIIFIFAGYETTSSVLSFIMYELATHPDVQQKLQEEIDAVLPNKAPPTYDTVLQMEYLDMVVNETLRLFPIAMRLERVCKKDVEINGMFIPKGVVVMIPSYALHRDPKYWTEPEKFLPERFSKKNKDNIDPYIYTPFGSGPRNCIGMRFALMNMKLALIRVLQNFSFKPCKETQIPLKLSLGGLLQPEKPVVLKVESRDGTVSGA
# Measurement protocol: Time dependent inhibition of CYP3A4 (unknown origin) using testosterone as substrate at 30 uM measured after 30 mins relative to control
# Assay type: ADME
# Condition details: probe testosterone, read-out: TDI

Documented inhibition at 0.5 h, 30 µM of Cc1cccnc1-c1ccc(-c2n[nH]c3ncc(-c4ccc5c(c4)CC[C@@H](N4C6COCC4C6)CC5)cc23)cc1 : 50%

Per the records, this compound ( Cc1cccnc1-c1ccc(-c2n[nH]c3ncc(-c4ccc5c(c4)CC[C@@H](N4C6COCC4C6)CC5)cc23)nc1 ) has inhibition at 0.5 h, 30 µM equal to 16%

The measured inhibition at 0.5 h, 30 µM associated with Cc1cccnc1-c1ccc(-c2c[nH]c3ncc(-c4ccc5c(c4)CC[C@@H](N4C6COCC4C6)CC5)cc23)cc1 reads 69%

* * *

# Measurement protocol: Tmax in human (healthy individuals) at 30 mg, single oral dose
# Assay type: ADME
# Condition details: in vivo
Value type: Tmax (h)
Supply the numeric figure in h, leaving out any unit text.

Please fill in: Tmax reported for Cc1cccnc1-c1ccc(-c2n[nH]c3ncc(-c4ccc5c(c4)CC[C@@H](N4C6COCC4C6)CC5)cc23)nc1 = 8

* * *

# Measurement protocol: Half life in human (healthy individuals) at 30 mg, single oral dose
# Type: ADME
# Condition details: in vivo
Value type: half-life (h)
Field format: number, assumed h, no unit text.

// field: half-life; key: Cc1cccnc1-c1ccc(-c2n[nH]c3ncc(-c4ccc5c(c4)CC[C@@H](N4C6COCC4C6)CC5)cc23)nc1 ; value = 72

* * *

# Measurement protocol: AUC (0 to last) in cynomolgus monkey at 1 mg/kg, iv measured up to 8 hrs by LC-MS/MS analysis
# Assay type: ADME, organism-based, Macaca fascicularis
# Condition details: in vivo
Value type: AUC(0-t) at 8 h (ng·h/mL)
State the answer as a number, implicitly in ng·h/mL.

# AUC(0-t) at 8 h (compound: CN(C)C(=O)c1ccc(-c2n[nH]c3ncc(-c4ccc5c(c4)CC[C@@H](N4C6COCC4C6)CC5)cc23)cc1 ) is 210

* * *

# System under test: Tyrosine-protein kinase receptor UFO (Homo sapiens, UniProt P30530)
# Sequence (P30530 whole entry): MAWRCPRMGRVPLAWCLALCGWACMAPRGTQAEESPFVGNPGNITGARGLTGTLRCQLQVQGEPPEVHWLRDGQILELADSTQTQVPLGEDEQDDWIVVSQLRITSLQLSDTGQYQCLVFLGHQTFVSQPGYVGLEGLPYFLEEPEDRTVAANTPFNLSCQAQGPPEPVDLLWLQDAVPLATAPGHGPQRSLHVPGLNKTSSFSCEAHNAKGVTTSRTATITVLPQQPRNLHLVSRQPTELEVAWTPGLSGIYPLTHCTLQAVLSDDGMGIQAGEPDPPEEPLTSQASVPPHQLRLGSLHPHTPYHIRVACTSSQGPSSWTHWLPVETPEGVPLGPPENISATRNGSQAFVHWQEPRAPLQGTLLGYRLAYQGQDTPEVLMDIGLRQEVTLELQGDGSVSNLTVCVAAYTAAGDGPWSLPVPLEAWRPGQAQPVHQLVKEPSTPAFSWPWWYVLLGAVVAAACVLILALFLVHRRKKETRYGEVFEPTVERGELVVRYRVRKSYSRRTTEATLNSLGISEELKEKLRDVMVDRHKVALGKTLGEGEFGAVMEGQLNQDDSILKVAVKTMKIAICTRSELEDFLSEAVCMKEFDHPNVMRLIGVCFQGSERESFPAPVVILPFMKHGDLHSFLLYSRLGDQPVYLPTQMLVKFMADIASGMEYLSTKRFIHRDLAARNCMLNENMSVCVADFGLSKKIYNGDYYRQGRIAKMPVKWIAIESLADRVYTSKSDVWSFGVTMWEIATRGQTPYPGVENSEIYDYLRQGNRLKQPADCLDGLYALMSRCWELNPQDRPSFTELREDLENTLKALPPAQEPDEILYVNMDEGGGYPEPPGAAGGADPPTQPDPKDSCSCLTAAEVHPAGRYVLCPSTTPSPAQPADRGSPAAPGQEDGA
# Measurement protocol: Inhibition of human AXL measured after 150 mins by ATP-competitive HTRF based biochemical assay
Give measured log10 IC50 for each item. Keep answers brief.
Scale: decimal log of IC50, IC50 in nM.

The reported log10 IC50 value, Tyrosine-protein kinase receptor UFO (Homo sapiens, UniProt P30530), for Cn1nncc1-c1ccc(-c2n[nH]c3ncc(-c4ccc5c(c4)CC[C@@H](N4C6COCC4C6)CC5)cc23)cc1 reads 0.95

Summary: O=S1(=O)CCCN1c1ccc(-c2n[nH]c3ncc(-c4ccc5c(c4)CC[C@@H](N4C6COCC4C6)CC5)cc23)cc1 , Tyrosine-protein kinase receptor UFO (Homo sapiens, UniProt P30530), log10 IC50 = 1.11

Form field log10 IC50 for item c1cncc(-c2ccc(-c3n[nH]c4ncc(-c5ccc6c(c5)CC[C@@H](N5C7COCC5C7)CC6)cc34)cc2)c1 on Tyrosine-protein kinase receptor UFO (Homo sapiens, UniProt P30530): 1.28

For N#Cc1cccnc1-c1ccc(-c2n[nH]c3ncc(-c4ccc5c(c4)CC[C@@H](N4C6COCC4C6)CC5)cc23)cc1 on Tyrosine-protein kinase receptor UFO (Homo sapiens, UniProt P30530), measured log10 IC50 was 0.78

Query Cn1nccc1-c1ccc(-c2n[nH]c3ncc(-c4ccc5c(c4)CC[C@@H](N4C6COCC4C6)CC5)cc23)cc1 on Tyrosine-protein kinase receptor UFO (Homo sapiens, UniProt P30530); log10 IC50 returned: 0.59

Lab note: molecule Cc1cccnc1-c1ccc(-c2n[nH]c3ncc(-c4ccc5c(c4)CC[C@@H](N4C6COCC4C6)CC5)cc23)nc1 tested on Tyrosine-protein kinase receptor UFO (Homo sapiens, UniProt P30530); recorded log10 IC50 was 0.26

Record CCc1cccnc1-c1ccc(-c2n[nH]c3ncc(-c4ccc5c(c4)CC[C@@H](N4C6COCC4C6)CC5)cc23)cc1 ; system Tyrosine-protein kinase receptor UFO (Homo sapiens, UniProt P30530); log10 IC50 = 0.15

The reported log10 IC50 value, Tyrosine-protein kinase receptor UFO (Homo sapiens, UniProt P30530), for Cc1cccnc1-c1ccc(-c2n[nH]c3ncc(-c4ccc5c(c4)CC[C@@H](N4C6COCC4C6)CC5)cc23)cc1 reads 0.38

Cn1cc(-c2ccc(-c3n[nH]c4ncc(-c5ccc6c(c5)CCC(N5C7COCC5C7)CC6)cc34)cc2)cn1 (racemic) on Tyrosine-protein kinase receptor UFO (Homo sapiens, UniProt P30530) gives log10 IC50 = 1.53

Bench note, Tyrosine-protein kinase receptor UFO (Homo sapiens, UniProt P30530): COCCOc1ccc(-c2n[nH]c3ncc(-c4ccc5c(c4)CC[C@@H](N4C6COCC4C6)CC5)cc23)cc1 , log10 IC50 reads 1.08

Sample O=C1CCCN1c1ccc(-c2n[nH]c3ncc(-c4ccc5c(c4)CC[C@@H](N4C6COCC4C6)CC5)cc23)cc1 , system: Tyrosine-protein kinase receptor UFO (Homo sapiens, UniProt P30530). Its log10 IC50 is 1.78

log10 IC50 value, target or system Tyrosine-protein kinase receptor UFO (Homo sapiens, UniProt P30530), for c1ccc(-c2ccc(-c3n[nH]c4ncc(-c5ccc6c(c5)CC[C@@H](N5C7COCC5C7)CC6)cc34)cc2)nc1 : 0.70

# value of log10 IC50, Tyrosine-protein kinase receptor UFO (Homo sapiens, UniProt P30530), item Cc1cccnc1-c1ccc(-c2n[nH]c3ncc(-c4ccc5c(c4)CC[C@@H](N4C[C@@H]6C[C@H]4CO6)CC5)cc23)cc1 = 0.26

Measured log10 IC50 (Tyrosine-protein kinase receptor UFO (Homo sapiens, UniProt P30530)), entry COc1cccnc1-c1ccc(-c2n[nH]c3ncc(-c4ccc5c(c4)CC[C@@H](N4C6COCC4C6)CC5)cc23)cc1 : 0.38

Bench note, Tyrosine-protein kinase receptor UFO (Homo sapiens, UniProt P30530): Cn1ccnc1-c1ccc(-c2n[nH]c3ncc(-c4ccc5c(c4)CC[C@@H](N4C6COCC4C6)CC5)cc23)cc1 , log10 IC50 reads -0.20

Recorded log10 IC50 for CN(C)S(=O)(=O)c1ccc(-c2n[nH]c3ncc(-c4ccc5c(c4)CC[C@@H](N4C6COCC4C6)CC5)cc23)cc1 on Tyrosine-protein kinase receptor UFO (Homo sapiens, UniProt P30530) was 0.41

Form field log10 IC50 for item CO[C@H]1C[C@@H](N[C@H]2CCc3ccc(-c4cnc5[nH]nc(-c6ccc(-c7ncccc7C)cc6)c5c4)cc3CC2)C1 on Tyrosine-protein kinase receptor UFO (Homo sapiens, UniProt P30530): 0.53

Reported Tyrosine-protein kinase receptor UFO (Homo sapiens, UniProt P30530) log10 IC50 for item Cc1cccnc1-c1ccc(-c2n[nH]c3ncc(-c4ccc5c(c4)CC[C@@](C)(N4CCC[C@H]4C)CC5)cc23)cc1 was -0.12

Record for COCCOc1cccnc1-c1ccc(-c2n[nH]c3ncc(-c4ccc5c(c4)CC[C@@H](N4C6COCC4C6)CC5)cc23)cc1 under target or system Tyrosine-protein kinase receptor UFO (Homo sapiens, UniProt P30530): log10 IC50 reported as 0.11

c1cc(-c2n[nH]c3ncc(-c4ccc5c(c4)CCC(N4C6COCC4C6)CC5)cc23)ccn1 (racemic) tested on Tyrosine-protein kinase receptor UFO (Homo sapiens, UniProt P30530) gave log10 IC50: 1.30

Observed log10 IC50 on Tyrosine-protein kinase receptor UFO (Homo sapiens, UniProt P30530), entry Cc1cccnc1-c1ccc(-c2n[nH]c3ncc(-c4ccc5c(c4)CC[C@@H](N[C@H]4CCCOC4)CC5)cc23)cc1 , equals 0.41

Sample c1cc2c(cc1-c1cnc3[nH]nc(-c4ccc(N5C[C@@H]6C[C@H]5CO6)cc4)c3c1)CC[C@@H](N1C3COCC1C3)CC2 , system: Tyrosine-protein kinase receptor UFO (Homo sapiens, UniProt P30530). Its log10 IC50 is 1.66

Tyrosine-protein kinase receptor UFO (Homo sapiens, UniProt P30530) data for c1cc2c(cc1-c1cnc3[nH]nc(-c4ccc(N5CCOCC5)cc4)c3c1)CC[C@@H](N1C3COCC1C3)CC2 ; its log10 IC50: 1.82

Test item CS(=O)(=O)c1ccc(-c2n[nH]c3ncc(-c4ccc5c(c4)CC[C@@H](N4C6COCC4C6)CC5)cc23)cc1 ; Tyrosine-protein kinase receptor UFO (Homo sapiens, UniProt P30530); reported log10 IC50 was 0.58

Reported log10 IC50 (Tyrosine-protein kinase receptor UFO (Homo sapiens, UniProt P30530)) for entry Cc1cccnc1-c1ccc(-c2c[nH]c3ncc(-c4ccc5c(c4)CC[C@@H](N4C6COCC4C6)CC5)cc23)cc1 is -0.14

Item c1cc2c(cc1-c1cnc3[nH]nc(-c4ccc(N5CC6(COC6)C5)cc4)c3c1)CC[C@@H](N1C3COCC1C3)CC2 was tested on Tyrosine-protein kinase receptor UFO (Homo sapiens, UniProt P30530); the reported log10 IC50 is 1.43

The reported log10 IC50 value, Tyrosine-protein kinase receptor UFO (Homo sapiens, UniProt P30530), for CN(C)C(=O)c1ccc(-c2n[nH]c3ncc(-c4ccc5c(c4)CC[C@@H](N4C6COCC4C6)CC5)cc23)cc1 reads 0.72

Item: O=C1OCCN1c1ccc(-c2n[nH]c3ncc(-c4ccc5c(c4)CC[C@@H](N4C6COCC4C6)CC5)cc23)cc1 | System: Tyrosine-protein kinase receptor UFO (Homo sapiens, UniProt P30530) | log10 IC50: 1.18

Entry c1cc2c(cc1-c1cnc3[nH]nc(-c4ccc(N5C[C@H]6C[C@@H]5CO6)cc4)c3c1)CC[C@@H](N1C3COCC1C3)CC2 ; assay system Tyrosine-protein kinase receptor UFO (Homo sapiens, UniProt P30530); log10 IC50 recorded at 1.45

// assay Tyrosine-protein kinase receptor UFO (Homo sapiens, UniProt P30530), entry FC(F)(F)c1cccnc1-c1ccc(-c2n[nH]c3ncc(-c4ccc5c(c4)CC[C@@H](N4C6COCC4C6)CC5)cc23)cc1 , log10 IC50 value = 0.91

Entry Cn1ncnc1-c1ccc(-c2n[nH]c3ncc(-c4ccc5c(c4)CC[C@@H](N4C6COCC4C6)CC5)cc23)cc1 , tested on Tyrosine-protein kinase receptor UFO (Homo sapiens, UniProt P30530), has a reported log10 IC50 of 0.43

Known value: Tyrosine-protein kinase receptor UFO (Homo sapiens, UniProt P30530) log10 IC50 of the molecule c1cc2c(cc1-c1cnc3[nH]nc(-c4ccc5c(c4)OCCO5)c3c1)CCC(N1C3COCC1C3)CC2 (racemic) equals 1.23
